Values compiled from paper PMC9352680.

Target: T1, PUF4 RNA-binding domain (Saccharomyces cerevisiae, UniProt P25339 537-888)
T1 sequence: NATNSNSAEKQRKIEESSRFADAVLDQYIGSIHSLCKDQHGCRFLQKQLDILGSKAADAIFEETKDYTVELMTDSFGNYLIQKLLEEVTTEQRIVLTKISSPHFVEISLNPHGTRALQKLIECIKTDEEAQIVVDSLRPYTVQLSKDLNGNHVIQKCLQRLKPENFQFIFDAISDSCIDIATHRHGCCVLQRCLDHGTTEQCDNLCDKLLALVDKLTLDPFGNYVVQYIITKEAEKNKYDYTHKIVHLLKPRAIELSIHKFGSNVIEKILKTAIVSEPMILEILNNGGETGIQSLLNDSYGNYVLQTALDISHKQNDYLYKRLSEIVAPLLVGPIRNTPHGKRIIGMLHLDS
Experiment: Mg; RNA-MaP; 20 mM Na-HEPES pH 7.4, 30 mM KOAc, 0.75 mM MgCl2, 0.1% Tween-20, 5% glycerol, 0.1 mg/mL BSA, 2 mM DTT; 25 C; 0.0125-409.6 nM protein
Conditions: tags: N-His6-TEV cleaved; C-SNAP kept, Cy3B-labelled; label: tethered on chip by stalled RNA polymerase
Readout type: pKd
Keep in mind that pKd stands for -log10 of concentration in molar terms.

>>> numeric_value("Id_ii_S2_P4E.2_K4.1_C4.2_[C-2T]_[T-1A]_H4.1_A4.1_F4.1_T4.2_[T11C] (ssRNA) RNA: UUUGAUUAAUAUGAUAUCGUUCUUUCUUAUGUAUAUUAGCUUCUUUCUCGAUAUCAUAUUAAUCUUU")
9.28
>>> numeric_value("Id_ii_S4_P4E.3_K4.2_C4.2_[C-2T]_[T-1C]_H4.2_A4.1_F4.1_T4.2_[G10T]_[T11C] (ssRNA) RNA: UUUGACAACUGAUCGUUCUUUCUUCUAUAUAUUAUCUUCUUUCUCGAUCAGUUGUCUUU")
8.29
>>> numeric_value("Ib_S4_P5E.1_K5.1_C5.1_H5.1_A5.1_F5.1_[T8A]_[A10G]_T5.1 (ssRNA) RNA: UUUGACAACUGAUCGUUCUUUCUUGUAUUAAUGUUCUUUCUCGAUCAGUUGUCUUU")
7.44
>>> numeric_value("UCUCUUUAUAUAGUAUCUCUU (ssRNA) [Ib_S1_P4E.1_K4.1_C4.1_H4.1_[G2A]_A4.1_[T7G]_F4.1_T4.1]")
7.30
>>> numeric_value("Id_iii_S2_P5E.7_K5.3_C5.3_[C-2G]_H5.3_A5.1_F5.1_T5.2 (ssRNA) RNA: UUUGAUUAAUAUGAUAUCGUUCUUUCUUGUACACUUAUUAUAUUCUUUCUCGAUAUCAUAUUAAUCUUU")
8.70

Lab note: UCUCUUUGUAUAUUCCUCUCUU (ssRNA) [Ic_S1_P5E.1_K5.1_C5.1_H5.1_A5.1_[T6A]_[A7T]_F5.1_[T9C]_[A10C]_T5.1] gave pKd of 8.23

Entry Ie_S2_P5E.1_K5.1_C5.1_H5.1_[+2TTCCT]_A5.1_F5.1_T5.1 (ssRNA) RNA: UUUGAUUAAUAUGAUAUCGUUCUUUCUUGUUCCUUAUUAUUAUUCUUUCUCGAUAUCAUAUUAAUCUUU , pKd reported as 7.56
